The measured values listed here are drawn from ChEMBL document CHEMBL3885881.

# TOTAL PROTEIN values compiled below
species on record: Rattus norvegicus; test: DrugMatrix - Regimen: Daily Repeat; assay type: toxicity, organism-based, Sprague-Dawley; parameters: regimen Daily Repeat, gender Male, age 6-8 weeks; details: in vivo, po, 0 mg/kg, 72 h, tissue Plasma, route oral GAVAGE, dose level Control, time 3 day, […]
A number alone suffices; assume G/DL.

Worked set:
[
  {
    "compound": "Cc1ccc(C)c(OCCCC(C)(C)C(=O)O)c1",
    "TOTAL PROTEIN (G/DL)": 5.78
  },
  {
    "compound": "CC(=O)Oc1ccccc1C(=O)O",
    "TOTAL PROTEIN (G/DL)": 5.8
  },
  {
    "compound": "CS(=O)(=O)Nc1ccc([N+](=O)[O-])cc1Oc1ccccc1 [NIMESULIDE]",
    "TOTAL PROTEIN (G/DL)": 5.8
  }
]

Reported TOTAL PROTEIN, compound CC(C)c1c(C(=O)Nc2ccccc2)c(-c2ccccc2)c(-c2ccc(F)cc2)n1CC[C@@H](O)C[C@@H](O)CC(=O)O : ____
5.63

Ok, now CCc1ccc(CCOc2ccc(CC3SC(=O)NC3=O)cc2)nc1 (stereo not given)
6.65

###

species on record: Rattus norvegicus; test: DrugMatrix - Regimen: Daily Repeat; format: toxicity, organism-based, Sprague-Dawley; set-up: regimen Daily Repeat, gender Male, age 6-8 weeks; details: in vivo, po, 0 mg/kg, 72 h, tissue Plasma, route oral GAVAGE, dose level Control, time 3 day, vehicle .5 % CMC
# ASPARTATE AMINOTRANSFERASE values compiled below
A number alone suffices; assume u/L.

[
  {
    "compound": "COc1ccccc1[N+](=O)[O-]",
    "ASPARTATE AMINOTRANSFERASE [u/L]": 96
  }
]

With those in mind, consider the next compound.
Reported ASPARTATE AMINOTRANSFERASE, compound CCCNC(=O)NS(=O)(=O)c1ccc(Cl)cc1 [CHLORPROPAMIDE] : ____
67.17

###

# TOTAL BILIRUBIN values compiled below
organism: Rattus norvegicus; experiment: DrugMatrix - Regimen: Daily Repeat; assay type: toxicity, organism-based, Sprague-Dawley; set-up: regimen Daily Repeat, gender Male, age 6-8 weeks; conditions: in vivo, po, 0 mg/kg, 72 h, tissue Plasma, route oral GAVAGE, dose level Control, time 3 day, […]
A number alone suffices; assume mg/dL.

Reported TOTAL BILIRUBIN, compound CS(=O)(=O)Nc1ccc([N+](=O)[O-])cc1Oc1ccccc1 [NIMESULIDE] : ____
0.27

Ok, now CCc1ccc(CCOc2ccc(CC3SC(=O)NC3=O)cc2)nc1 (centres undefined)
0.13

Ok, now ClC(Cl)(Cl)Cl [CARBON TETRACHLORIDE]
0.12

Ok, now O=c1c(-c2ccc(O)cc2)coc2cc(O)cc(O)c12
0.17

Ok, now CC(C)c1c(C(=O)Nc2ccccc2)c(-c2ccccc2)c(-c2ccc(F)cc2)n1CC[C@@H](O)C[C@@H](O)CC(=O)O
0.17

Ok, now Cc1ccc(C)c(OCCCC(C)(C)C(=O)O)c1
0.22

Ok, now c1ccoc1
0.4

Ok, now CC(=O)Oc1ccccc1C(=O)O
0.2

Ok, now CCCCC(=O)N(Cc1ccc(-c2ccccc2-c2nnn[nH]2)cc1)[C@H](C(=O)O)C(C)C
0.13

###

organism: Rattus norvegicus; experiment: DrugMatrix - Regimen: Daily Repeat; type: toxicity, organism-based, Sprague-Dawley; design: regimen Daily Repeat, gender Male, age 6-8 weeks; details: in vivo, po, 0 mg/kg, 72 h, tissue Blood, route oral GAVAGE, dose level Control, time 3 day, vehicle .5 % CMC
# MEAN CORPUSCULAR HEMOGLOBIN CONCENTRATION values compiled below
A number alone suffices; assume G/DL.

Worked set:
[
  {
    "molecule": "CCn1cc(C(=O)O)c(=O)c2cc(F)c(N3CCNC(C)C3)c(F)c21 (centres undefined) [LOMEFLOXACIN]",
    "reported": 37.4
  },
  {
    "molecule": "NC(=O)N1c2ccccc2CC(=O)c2ccccc21 [OXCARBAZEPINE]",
    "reported": 38.85
  },
  {
    "molecule": "CN(C)C(=O)C(CCN1CCC(O)(c2ccc(Cl)cc2)CC1)(c1ccccc1)c1ccccc1 [LOPERAMIDE]",
    "reported": 38.98
  }
]

Reported MEAN CORPUSCULAR HEMOGLOBIN CONCENTRATION, molecule COc1ccc2c(c1OC)C(=O)O[C@@H]2[C@H]1c2c(cc3c(c2OC)OCO3)CCN1C [NOSCAPINE] : ____
31

###

species: Rattus norvegicus; test: DrugMatrix - Regimen: Daily Repeat; type: toxicity, organism-based, Sprague-Dawley; parameters: regimen Daily Repeat, gender Male, age 6-8 weeks; settings: in vivo, po, 0 mg/kg, 72 h, tissue Plasma, route oral GAVAGE, dose level Control, time 3 day, […]
metric-name: BLOOD UREA NITROGEN (mg/dL)
A number alone suffices; assume mg/dL.

Worked set:
[
  {
    "compound": "c1ccoc1 [FURAN]",
    "reading-unit": "mg/dL",
    "BLOOD UREA NITROGEN": 14.33
  },
  {
    "compound": "CCc1ccc(CCOc2ccc(CC3SC(=O)NC3=O)cc2)nc1 (centres undefined) [PIOGLITAZONE]",
    "reading-unit": "mg/dL",
    "BLOOD UREA NITROGEN": 13.5
  },
  {
    "compound": "CC(=O)Oc1ccccc1C(=O)O [ASPIRIN]",
    "reading-unit": "mg/dL",
    "BLOOD UREA NITROGEN": 13
  }
]

With those in mind, consider the next compound.
Reported BLOOD UREA NITROGEN, compound CS(=O)(=O)Nc1ccc([N+](=O)[O-])cc1Oc1ccccc1 [NIMESULIDE] : ____
13.33

###

species: Rattus norvegicus; format: toxicity, organism-based, Sprague-Dawley; conditions: in vivo, po, 2 mg/kg, 24 h, tissue Blood, route oral GAVAGE, dose level High, time 1 day, vehicle 100 % SALINE
Description: DrugMatrix - Regimen: Single
metric-name: ABSOLUTE MONOCYTE (cells/µL)
A number alone suffices; assume cells/µL.

Reported ABSOLUTE MONOCYTE, compound COc1cccc2c1C(=O)c1c(O)c3c(c(O)c1C2=O)C[C@@](O)(C(C)=O)C[C@@H]3O[C@H]1C[C@H](N)[C@H](O)[C@H](C)O1 : ____
260

###

species on record: Rattus norvegicus; assay: DrugMatrix - Regimen: Daily Repeat; assay type: toxicity, organism-based, Sprague-Dawley; design: regimen Daily Repeat, gender Male, age 6-8 weeks; details: in vivo, po, 0 mg/kg, 120 h, tissue Blood, route oral GAVAGE, dose level Control, time 5 day, vehicle 100 % WATER
# PLATELET COUNT values compiled below
A number alone suffices; assume x10E3/uL.

Worked set:
[
  {
    "compound": "CCN(CC)CCOC(=O)C1(C2CCCCC2)CCCCC1",
    "metric-name": "PLATELET COUNT",
    "reported": 1190.6
  },
  {
    "compound": "CNC1=Nc2ccc(Cl)cc2C(c2ccccc2)=[N+]([O-])C1 [CHLORDIAZEPOXIDE]",
    "metric-name": "PLATELET COUNT",
    "reported": 1280.5
  },
  {
    "compound": "CCN(C(C)=O)c1cccc(-c2ccnc3c(C#N)cnn23)c1",
    "metric-name": "PLATELET COUNT",
    "reported": 1223.5
  },
  {
    "compound": "CCCC(C)C1(CC)C(=O)NC(=O)NC1=O (stereo not given)",
    "metric-name": "PLATELET COUNT",
    "reported": 1144.83
  },
  {
    "compound": "CN(C)C(=O)Oc1cccc([N+](C)(C)C)c1.[Br-] [NEOSTIGMINE BROMIDE]",
    "metric-name": "PLATELET COUNT",
    "reported": 1144.83
  }
]

Reported PLATELET COUNT, compound O=c1[nH]c(=O)n(C2CCCO2)cc1F (stereo not given) : ____
1281.17

Ok, now CN(C)CCC=C1c2ccccc2CCc2ccccc21
1223.5

Ok, now CCN(CC)CCNC(=O)c1ccc(N)cc1 [PROCAINAMIDE]
979.67

Ok, now NC12CC3CC(CC(C3)C1)C2
1223.5

Ok, now NC(=O)c1cccnc1 [NIACINAMIDE]
1270.67

###

species on record: Rattus norvegicus; experiment: DrugMatrix - Regimen: Daily Repeat; type: toxicity, organism-based, Sprague-Dawley; set-up: regimen Daily Repeat, gender Male, age 6-8 weeks; details: in vivo, ip, 10 mg/kg, […], tissue Blood, route intraperitoneal, dose level High, time 14 day, vehicle 100 % SALINE
metric-name: ABSOLUTE BASOPHIL
Mention the unit after the number when you answer.

Reported ABSOLUTE BASOPHIL, sequence COBALTOUS CHLORIDE : ____
72 cells/µL
